# assay info: small-molecule binders of probe aNOTCH2, primary screen, biochemical, small-molecule microarray, 635/667 nm fluorescence (AID 1121);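 further: score merges feature fluorescence read at 667 nm with its signal to noise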
# condition info: higher = more signal
The entries below come with measured composite z-score values attached.

| compound | composite z-score |
| --- | --- |
| OCCCc1cc[n+](Cc2cc3c(cc2Br)OCO3)cc1 | -0.112 |
| C[C@]1(C(=O)NCC(F)(F)F)c2ccccc2C(=O)N(Cc2cc(C(F)(F)F)cc(C(F)(F)F)c2)[C@H]1c1ccc(CO)cc1 | -0.0226 |
| COC(=O)[C@@]1(Cc2ccc(F)cc2)[C@H]2c3cc(C(=O)N(C)C)n(Cc4cccc5ccccc45)c3C[C@H]2CN1C(=O)c1ccccc1 | 0.168 |
| C=C(CCCC)C(=O)CC[C@H](OC(=O)c1ccccc1-c1ccccc1C(=O)O)c1cccc(OCCO)c1 | -0.126 |
| COc1c(C)cc(-c2cc3c(c(CCc4ccccc4)n2)[Si](C(C)C)(C(C)C)O[C@H]3c2ccccc2)cc1C | -0.14 |
| O=C(N1CCOCC1)[C@]1(CCS(=O)(=O)c2ccccc2)N=C(c2ccc(OCCCO)cc2)O[C@@H]1c1ccccc1 | -0.0256 |
| CC(C)(C)OC(=O)CC[C@@]1(C(=O)N2CCOCC2)N=C(c2ccc(OCCCO)cc2)O[C@@H]1c1ccccc1CN=[N+]=[N-] | 0.23 |
| CC(C)c1ccc(NN2C(C(O)C3CCCCC3)C=CC3C(=O)N(c4ccccc4)C(=O)C32)cc1 (centres undefined) | 0.0836 |
| COCCOC(=O)N1C(=O)[C@@]2(c3cc(C#CCC(C(=O)OC)C(=O)OC)ccc31)[C@H](C(N)=O)[C@H]1C(=O)O[C@H](c3ccccc3)[C@H](c3ccccc3)N1[C@@H]2c1ccccc1OCCO | 0.201 |
| COCCCNC(=O)[C@]1(Cc2ccccc2CN=[N+]=[N-])N=C(c2ccc(OCCCO)cc2)O[C@@H]1c1ccccc1N=[N+]=[N-] | 0.188 |
| CCOC(=O)C1=CCC(c2ccncc2)N(S(=O)(=O)c2ccc(C)cc2)C1 (centres undefined) | -0.0621 |
| C=CCOC(=O)[C@H]1[C@@H]2C(=O)O[C@@H](c3ccccc3)[C@@H](c3ccccc3)N2[C@@H](c2ccc(OCCOC(=O)[C@H]3C[C@H]4C(=O)NCC(=O)N4[C@H]3c3cccc(OCCO)c3)cc2)[C@]12C(=O)Nc1ccc(I)cc12 | -0.125 |
| C=CCNC(=O)[C@@H]1[C@H]2C(=O)O[C@H](c3ccccc3)[C@H](c3ccccc3)N2[C@H](c2ccc(OCCO)cc2)[C@@]12C(=O)N(C(=O)OCCOC)c1ccccc12 | -0.0432 |
| COCCOC(=O)N1C(=O)[C@@]2(c3cc(C#CCNC(N)=O)ccc31)[C@H](C(=O)Nc1nc3ccccc3s1)[C@H]1C(=O)O[C@H](c3ccccc3)[C@H](c3ccccc3)N1[C@@H]2c1ccc(O)cc1 | -0.0094 |

---

The entries below come with measured composite z-score values attached.
# tgt: Streptavidin (Streptomyces avidinii)
# assay info: streptavidin binders on small-molecule microarray, primary screen, artefact control for SMM compound annotation, biophysical, 635/667 nm fluorescence (AID 1147);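 further: signal reflects streptavidin binding to arrayed compounds as a control protein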
# condition info: streptavidin binding, higher = more signal

| compound | composite z-score |
| --- | --- |
| COC(=O)c1c2oc(c1C(=O)OC)C(=O)N[C@H](Cc1ccccc1)Cn1cc(nn1)C1(CCCCC1)NC(=O)N[C@H](CO)CC2 | -0.626 |
| C=C(C)C1CN([C@H](CO)c2ccccc2)C(=O)/C1=C\c1ccccc1 (some centres undefined) | -0.0971 |
| CCOC(=O)C[C@H]1[C@H](OC(=O)c2ccc(-c3ccccc3)cc2)[C@@H](NC(=O)C2CCCCC2)c2cc(OCCCO)ccc2N1C(=O)Cc1ccc(OC)cc1 | 0.226 |
| O=C1OC[C@@H](c2ccccc2)n2cc(/C=C/c3ccccc3)cc21 | 0.723 |
